system: 786-0 renal; test: NCI tumour cell line growth inhibition, 48 h
Where a SMILES comes first, the peptide text is derived from it. [ ]: non-standard residue; d: D form. The star is where a group is joined. NMeF = CN[C@@H](Cc1ccccc1)C(=O)O; NMeV = CN[C@H](C(=O)O)C(C)C; Boc = CC(C)(C)OC(=O)*; OBn = c1ccc(CO*)cc1
OUTCOME_MEASURE: TGI

Recorded results for 3 compounds are shown here.
| COMPOUND | TARGET_DESC | TGI |
| --- | --- | --- |
| CC(C)[C@@H](C(=O)N1CCC[C@H]1C(=O)OCc1ccccc1)N(C)C(=O)[C@H](C(C)C)N(C)C(=O)[C@H](Cc1ccccc1)N(C)C(=O)[C@H](NC(=O)OC(C)(C)C)C(C)C (Boc-[dV][NMeF][NMeV][NMeV]P-OBn) | 786-0 renal | > 100 µM |
| c1ccc(CCN2CCOCC2)nc1 | 786-0 renal | > 100 µM |
| COc1cc(/C=C2\C(=O)N(c3ccccc3)c3ccccc32)cc(OC)c1OC | 786-0 renal | 21.2 µM |

// next item, TGI requested
The recorded TGI for entry O=C1C2=Cc3ccccc3OC2(O)Oc2ccc(O)cc21 (centres undefined) equals > 100 µM

====

# GI50 values compiled below
system: MCF7 breast; test: NCI tumour cell line growth inhibition, 48 h

Recorded results for 3 compounds are shown here.
| SMILES_REPR | GI50 |
| --- | --- |
| CC(C)n1c(=O)n(C)c2cnc3cc(F)c(-c4ccc(OCCCN5CCCCC5)nc4)cc3c21 | 7.46 µM |
| Clc1ccc(C2=NN[C@H](c3cn(-c4ccccc4)nc3-c3ccccc3)C2)cc1 | 4.8 µM |
| COC1=CC(c2ccc[nH]2)=N/C1=C\c1[nH]c(C)c(C(C)=O)c1C | 1.05 µM |

The compound CCn1c(-c2nonc2N)nc2cncc(C(=O)NCCNC)c21 , tested on MCF7 breast, showed GI50 of 1.92 µM

The compound O=C1CC[C@H](c2ccc(O)c3c2C(=O)[C@@H]2O[C@@H]2C3=O)c2cccc(O)c21 , tested on MCF7 breast, showed GI50 of 1.17 µM

The compound Oc1ccc(-c2cn3cc(Cl)sc3n2)cc1 , tested on MCF7 breast, showed GI50 of 6.77 µM

The compound COc1cc(/C=C2\C(=O)N(c3ccccc3)c3ccccc32)cc(OC)c1OC , tested on MCF7 breast, showed GI50 of 8.05 µM

The compound COc1cc(-n2cnc(-c3ccc(Cl)cc3)c2)cc(OC)c1OC , tested on MCF7 breast, showed GI50 of 17.9 µM

The compound Cc1sc(NC2=NC(=O)/C(=C\c3ccccc3)S2)nc1-c1nc(NC2=NC(=O)/C(=C\c3ccccc3)S2)sc1C , tested on MCF7 breast, showed GI50 of 16.2 µM

The compound CCN(CC)CCCCNc1ncc2cc(-c3cc(OC)cc(OC)c3)c(NC(=O)NC(C)(C)C)nc2n1 , tested on MCF7 breast, showed GI50 of 5.35 µM

====

tested on: NCI-H226 lung; experiment: NCI tumour cell line growth inhibition, 48 h
OUTCOME_MEASURE: GI50

Recorded results for 10 compounds are shown here.
| COMPOUND | GI50 |
| --- | --- |
| Cc1[nH]nc2ccc3nc(-c4ccc5[nH]ncc5c4)c4c(c3c12)CCCC4 | 1.89 µM |
| COc1cc(-n2cnc(-c3ccc(Cl)cc3)c2)cc(OC)c1OC | > 100 µM |
| O=C(NCCNc1nccc(-c2c(-c3ccc(F)cc3)nc3sccn23)n1)c1ccccc1 | 5.87 µM |
| CCN(CC)CCCCNc1ncc2cc(-c3cc(OC)cc(OC)c3)c(NC(=O)NC(C)(C)C)nc2n1 | 2.57 µM |
| O=C(NCCNc1nccc(-c2c(-c3cccc(O)c3)nc3sccn23)n1)Nc1cccc(C(F)(F)F)c1 | 9.99 µM |
| Cc1nn(-c2ccccc2)c2nc3c(nc12)C1=NCCN1C(c1ccc(Cl)cc1)N3 (stereo not given) | 5.04 µM |
| O=S(=O)(CCNCc1ccc(-c2ccc3ncnc(Nc4ccc(OCc5cccc(F)c5)c(Cl)c4)c3c2)o1)c1ccccc1 | > 25 µM |
| N#C/C(=C1C=C/C(=N\O)C(Cl)=C\1)c1ccccc1 | 3.13 µM |
| NC1=CC(=O)c2nc3ccccc3c3ccnc1c23 | 0.937 µM |
| COc1ccc2cc(Cn3cc[n+](Cc4ccc5ccccc5c4)c3)ccc2c1 | 2.97 µM |

The recorded GI50 for entry CSC1=Nc2c(c(C)c(C)n2COC(CO)CO)C2=NC(=O)CC(C)N12 (stereo not given) equals > 100 µM

The recorded GI50 for entry COc1cc(/C=C2\C(=O)N(c3ccccc3)c3ccccc32)cc(OC)c1OC equals 9.69 µM

The recorded GI50 for entry CCN(CC)CCCC(Cc1ccccc1)Nc1c2ccc(Cl)cc2nc2ccc(OC)cc12 (stereo not given) equals 3.63 µM

The recorded GI50 for entry Cc1cc(C)c2nc3nc(C)cc(C)c3c(N)c2c1 equals 5.4 µM

The recorded GI50 for entry C=CC[C@@H]1/C=C(\C)C[C@H](C)C[C@H](OC)[C@H]2O[C@@](O)(C(=O)C(=O)N3CCCC[C@H]3C(=O)O[C@H](/C(C)=C/C3CC[C@@H](O)[C@H](OC)C3)[C@H](C)[C@@H](O)CC1=O)[C@H](C)C[C@@H]2OC (stereo not given in full) equals 15.3 µM

All values here come from PubChem BioAssay (NCI).
